Cited source: the supplement of paper PMC4466140

target: AgBzz1-D1; assay: SPOT peptide array binding signal intensity (averaged, normalized) (arbitrary units (background-subtracted, floor 0; scale differs between SH3 domains)); higher = stronger binding of the SH3 domain to the peptide
quantity_measured: SPOT peptide array binding signal intensity

1) IHTRRPSSTSQYLIR 73.5
2) VFQFQMPTTPISTKM 22.5
3) HPRFVSPRIPSRIVK 185
4) IKTRSVPKIPSIESV 24.5
